Hello, the source for this data is paper PMC5442318, in case you need it.

Can you tell me HepG2 cells mean TOX50 for the items I'm about to list?
- Tested on: HepG2 cells
- Experiment Summary: HepG2 cytotoxicity assay
- Format: cell-based
- Setup Conditions: mean
Give bare numbers, in µM.

List reported HepG2 cells mean TOX50 for each of these molecules:
1. CCCCN(CCCC)CCCCNc1c2ccc(Cl)cc2nc2ccc(OC)cc12.Cl [TCMDC-137460]
2. COc1cc2nc(N3CCC(CNC(=O)c4ccc(-c5ccc(Cl)cc5)cc4)CC3)nc(N)c2cc1OC [TCMDC-138718]
3. COc1c(CNCCCCCCNCc2cc(Cl)c3ccccc3c2OC)cc(Cl)c2ccccc12.CS(=O)(=O)O [TCMDC-137958]
4. C#CCOc1ccc2ccccc2c1CNCCCCCCNCc1c(OCC#C)ccc2ccccc12.CS(=O)(=O)O [TCMDC-137838]
5. CS(=O)(=O)O.FC(F)(F)COc1ccc2ccccc2c1CCNCCCCNCCc1c(OCC(F)(F)F)ccc2ccccc12 [TCMDC-137317]
6. CCCCOc1c(CNCCCCCCNCc2ccc3ccccc3c2OCCCC)ccc2ccccc12.CS(=O)(=O)O [TCMDC-137975]
7. CC(C)(C)c1ccc(-c2nc3c(ccc4nc(N)nc(N)c43)[nH]2)cc1.Cl [TCMDC-137984]

Response:
1: 4.73; 2: 4.22; 3: 4.62; 4: 2.92; 5: 2.09; 6: 2.21; 7: 2.12

* * *

- Test system: P. falciparum stage V female gametocytes
- Experiment Summary: P. falciparum female gametocyte activation assay (Pf FGAA), 24 h or 48 h preincubation, Pfs25 expression readout
- Format: cell-based, Plasmodium falciparum NF54
- Setup Conditions: stage V gametocytes, 48 h exposure; read-out: PfFGAA IC50
Reported Property: pIC50
Give bare numbers, as −log10 of the molar value.

Prompt: Supply reported pIC50 belonging to this compound: N#Cc1ccc(Cn2ccc3c4c(N)nc(N)nc4ccc32)cc1 [TCMDC-137820]
Response: 5.97

* * *

- System: HepG2 cells
- Experiment Summary: HepG2 cytotoxicity assay
- Format: cell-based
- Setup Conditions: HepG2 cells; mean
- Description: After incubation, plates and CellTiter-Glo Reagent (G7571, Promega) were equilibrated at room temperature for 30 min before proceeding to develop the luminescent signal. Using a Multidrop combi dispenser, 25 μl per well of the signal developer were added to the plates and after 10 min at room temperature for stabilization, plates were read on the ViewLux system (Perkin Elmer).
Reported Property: HepG2 cells mean TOX50 (µM)
Give bare numbers, in µM.

The examples below pair each entry with its known result.
Prompt: Supply reported HepG2 cells mean TOX50 belonging to this compound: COc1ccc(NC(=O)Nc2ccc(Nc3nc(C)cc(N4CCCC4)n3)cc2)cc1
Response: 11.89

Prompt: Supply reported HepG2 cells mean TOX50 belonging to this compound: O=C(Nc1cccc(-c2cccc(-c3nc4cc(C(F)(F)F)ccc4[nH]3)c2)c1)Nc1ccc(F)c(F)c1F
Response: 3.43

Prompt: Supply reported HepG2 cells mean TOX50 belonging to this compound: Fc1ccc2[nH]c(-c3ccc(-c4ccc(CN5CCC(CCN6CCCCC6)CC5)cc4)cc3)nc2c1.O=C(O)C(F)(F)F
Response: 3.94

List reported HepG2 cells mean TOX50 for each of these compounds:
1. c1ccc(-c2nc(NC3CCCCC3)cc(C3CC3)n2)nc1
2. Cc1cccc2nc(-c3ccc(-c4ccc(CNCCN5CCNCC5)cc4)s3)[nH]c12.O=C(O)C(F)(F)F
3. Oc1c(C(Nc2ccccn2)c2ccc(Cl)cc2Cl)ccc2cccnc12 (centres unmarked)

Response:
48.99
14.29
12.74

List reported HepG2 cells mean TOX50 for each of these compounds:
1. OC1CCN(c2cc(-c3ccccn3)nc(-c3ccccn3)n2)CC1
2. Br.CCCCc1ccc(CCNCCCCCCNCCc2ccc(O)c(O)c2)cc1
3. Cc1cccc(Nc2nc(N[C@@H]3CCCNC3)nc3cc[nH]c(=O)c23)c1.O=C(O)C(F)(F)F
4. Cc1ccc2c(c1)c(C1CCN(C(=O)c3ccc([N+](=O)[O-])o3)CC1)cn2C
5. Cc1ccnc(NC(c2ccc(Cl)c([N+](=O)[O-])c2)c2ccc3cccnc3c2O)c1 (centres unmarked)
6. Cn1c(Nc2cc(C(C)(C)C)on2)nc2cc(Nc3ccnc(Nc4cccc(S(=O)(=O)N5CCOCC5)c4)n3)ccc21
7. CC(C)(C)c1ccc(CN2CCC(CNC(=O)c3cc(-c4cccc(C(F)(F)F)c4)cs3)C2)cc1.O=C(O)C(F)(F)F (centres unmarked)

Response:
1: 14.14; 2: 4.63; 3: 3.25; 4: 28.85; 5: 23.45; 6: 8.13; 7: 6.39

Prompt: Supply reported HepG2 cells mean TOX50 belonging to this compound: Cc1cc(Nc2ncc(C#N)c(Nc3ccccc3C(N)=O)n2)ccc1N1CCN(C)CC1.Cl
Response: 0.40
